Target: R878A mutated mAPA (Mus musculus, UniProt P16406, R878A)
Construct: made in house; host or cells: stably transfected CHO-K1 cells
Sequence (P16406 1-945 R878A): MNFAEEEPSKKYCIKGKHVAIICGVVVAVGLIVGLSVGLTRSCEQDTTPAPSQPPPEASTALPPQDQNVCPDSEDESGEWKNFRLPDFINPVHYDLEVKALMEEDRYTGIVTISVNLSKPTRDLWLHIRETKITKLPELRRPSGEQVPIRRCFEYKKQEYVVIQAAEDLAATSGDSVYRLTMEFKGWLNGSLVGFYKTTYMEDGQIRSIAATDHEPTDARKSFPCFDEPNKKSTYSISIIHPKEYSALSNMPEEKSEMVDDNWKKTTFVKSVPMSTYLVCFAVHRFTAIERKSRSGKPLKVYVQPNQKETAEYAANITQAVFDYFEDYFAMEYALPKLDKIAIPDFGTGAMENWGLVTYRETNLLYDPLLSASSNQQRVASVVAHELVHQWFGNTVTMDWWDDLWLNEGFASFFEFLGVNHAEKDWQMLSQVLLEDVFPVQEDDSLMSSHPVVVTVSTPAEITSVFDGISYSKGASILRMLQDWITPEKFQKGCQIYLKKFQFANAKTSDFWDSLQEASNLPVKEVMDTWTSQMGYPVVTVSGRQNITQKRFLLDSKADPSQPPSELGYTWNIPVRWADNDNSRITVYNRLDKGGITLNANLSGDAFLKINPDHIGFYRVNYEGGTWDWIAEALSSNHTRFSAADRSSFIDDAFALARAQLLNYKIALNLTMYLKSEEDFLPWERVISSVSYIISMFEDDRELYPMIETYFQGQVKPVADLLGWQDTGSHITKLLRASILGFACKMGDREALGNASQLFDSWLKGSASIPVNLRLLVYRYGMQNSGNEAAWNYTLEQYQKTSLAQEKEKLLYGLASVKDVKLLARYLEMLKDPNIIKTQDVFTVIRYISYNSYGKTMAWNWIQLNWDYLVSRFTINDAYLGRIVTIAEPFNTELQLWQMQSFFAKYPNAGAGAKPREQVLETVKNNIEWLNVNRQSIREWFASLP
Assay: Kinetic parameters of substrate hydrolysis by R878A His-mAPA
Assay type: biochemical
Settings: 4 mM Ca2+
Procedure: Enzyme assays were carried out for wild-type and mutated His-mAPAs in 50 mM Tris-HCl buffer, pH 7.4, with or without 4 mM CaCl2, by monitoring the rate of hydrolysis of GluNA, as previously described. […] The kinetic curves were monitored by following the increase in fluorescence at 460 nm (lex = 330 nm), induced by the release of the β-naphthylamide fluorogenic part of the substrate by APA. […]
reported.metric: Km (µM)
Answer format: numeric, µM implied, no suffix.

Q. Which measured Km value corresponds to NCCCC[C@H](N)C(=O)Nc1ccc2ccccc2c1 [HLysβNA, α-L-lysine-β-naphthylamide] ?
A. 159

Q. Which measured Km value corresponds to N[C@@H](CCC(=O)O)C(=O)Nc1ccc2ccccc2c1 [HGluβNA, α-L-glutamyl-β-naphthylamide] ?
A. 221

Q. Which measured Km value corresponds to C[C@H](N)C(=O)Nc1ccc2ccccc2c1 [HAlaβNA, α-L-alanine-β-naphthylamide] ?
A. 544

Q. Which measured Km value corresponds to N[C@@H](CC(=O)O)C(=O)Nc1ccc2ccccc2c1 [HAspβNA, α-L-aspartate-β-naphthylamide] ?
A. 199
